test: Tmax in F344/DuCrlCrlj rat at 1000 mg/kg, po via gavage measured on day 28 post dose; assay type: ADME, organism-based; conditions: in vivo
recorded_endpoint: Tmax (h)
Answer in h, number only, no unit symbol.

For Cc1cnc(Oc2ccc3nc(COc4cccc(C(=O)O)c4)n(C)c3c2)c(C)c1.Cl , what is its reported Tmax? 1

---

assay: AUClast in cynomolgus monkey at 3 mg/kg, po by LC-MS/MS; format: ADME, organism-based, Macaca fascicularis; parameters: dose 3 mg/kg, time 0 - last, route oral; conditions: in vivo
Attribute: log10 of AUC(0-t)
Parameter value (number): base-10 log of AUC(0-t) in ng·h/mL.

Use these answered entries as a reference point.
compound_string=Cc1cnc(Oc2ccc3nc(COc4cccc(C(=O)O)c4)n(C)c3c2)c(C)c1 value_reported=4.37
compound_string=Cn1c(COc2cccc(C(=O)O)c2)nc2ccc(Oc3ccc(Cl)c(F)c3)cc21 value_reported=4.60
compound_string=Cn1c(COc2cccc(C(=O)O)c2)nc2ccc(Oc3ncc(Cl)cc3F)cc21 value_reported=4.00
compound_string=Cn1c(COc2cccc(C(=O)O)c2)nc2ccc(Oc3ccc4c(c3)OCC4)nc21 value_reported=3.69

Proceeding to the next molecule to report its log10 of AUC(0-t).
Name the recorded log10 of AUC(0-t) for Cc1cnc(Oc2ccc3nc(COc4cccc(C(=O)O)c4)n(C)c3c2)c(F)c1 . 3.17

---

experiment: AUC (0 to 24 hrs) in F344/DuCrlCrlj rat at 50 mg/kg, po via gavage measured on day 28 post dose; type: ADME, organism-based; set-up: time < 24 hr, dose 50 mg/kg, route oral; settings: in vivo
recorded_endpoint: AUC at 24 h
Number plus unit, in that order.

Record request: AUC at 24 h value, item CN(CCOc1ccc(CC2SC(=O)NC2=O)cc1)c1ccccn1 (stereo unspecified) 525 µg·h/mL

---

test: 1-octanol/PBS distribution co-efficient, log D of the compound at […] at pH 7.4 after 30 mins by HPLC-MS/MS method; format: physicochemical
logD at 0.5 h: recorded values
Quick one: just the number, no unit, thanks!

compound_string=Cc1cnc(Oc2ccc3nc(COc4cccc(C(=O)O)c4)n(C)c3c2)c(C)c1 value_reported=1.4
compound_string=Cn1c(COc2cccc(C(=O)O)c2)nc2ccc(Oc3ncccc3Cl)cc21 value_reported=1.1

Using the record for Cc1cccc(Oc2ccc3nc(COc4cccc(C(=O)O)c4)n(C)c3c2)n1 , report its logD at 0.5 h. 0.8

Now this one: Cn1c(COc2cccc(C(=O)O)c2)nc2ccc(Oc3ccc(F)cn3)cc21 0.6

---

test: Cmax in F344/DuCrlCrlj rat at 300 mg/kg, po via gavage measured on day 28 post dose; type: ADME, organism-based; parameters: dose 300 mg/kg, route oral; conditions: in vivo
recorded_endpoint: Cmax (µg/mL)
Unit µg/mL implied. Number only.

Which Cmax is reported for this compound? Cc1cnc(Oc2ccc3nc(COc4cccc(C(=O)O)c4)n(C)c3c2)c(C)c1.Cl 206

---

Biological target: Peroxisome proliferator-activated receptor gamma (Homo sapiens)
Sequence (whole entry): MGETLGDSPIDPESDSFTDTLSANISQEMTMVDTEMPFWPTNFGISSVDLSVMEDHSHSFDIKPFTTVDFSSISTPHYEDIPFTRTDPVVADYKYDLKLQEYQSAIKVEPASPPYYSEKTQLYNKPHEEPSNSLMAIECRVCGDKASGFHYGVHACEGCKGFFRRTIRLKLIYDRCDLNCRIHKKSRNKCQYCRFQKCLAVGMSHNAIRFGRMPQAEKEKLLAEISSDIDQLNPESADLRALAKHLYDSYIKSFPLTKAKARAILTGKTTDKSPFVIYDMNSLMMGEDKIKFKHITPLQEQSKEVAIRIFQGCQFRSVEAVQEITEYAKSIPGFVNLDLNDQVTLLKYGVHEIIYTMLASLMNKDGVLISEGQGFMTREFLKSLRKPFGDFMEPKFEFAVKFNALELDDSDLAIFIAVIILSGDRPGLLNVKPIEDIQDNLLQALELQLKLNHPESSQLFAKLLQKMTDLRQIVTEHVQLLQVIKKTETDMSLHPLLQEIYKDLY
Test: Agonist activity at recombinant human GAL4-DBD fused PPARgamma LBD expressed in COS7 cells at 10 uM after 24 hrs by luciferase reporter gene assay relative to rosiglitazone
Assay type: cell-based
recorded_endpoint: Emax
Answer shape: numeric part, then the unit.

Guide cases for Emax, answers given:
compound_string=Cc1cccnc1Oc1ccc2nc(COc3cccc(C(=O)O)c3)n(C)c2c1 value_reported=83%
compound_string=Cn1c(COc2cccc(C(=O)O)c2)nc2ccc(Oc3ccc(F)cn3)cc21 value_reported=87%
compound_string=Cn1c(COc2cccc(C(=O)O)c2)nc2ccc(Oc3ncccc3F)cc21 value_reported=80%
compound_string=Cn1c(COc2cccc(C(=O)O)c2)nc2ccc(Oc3ccc(Cl)c(F)c3)nc21 value_reported=88%
compound_string=Cn1c(COc2cccc(C(=O)O)c2)nc2ccc(Oc3ncccc3Cl)cc21 value_reported=93%

Form field: Emax recorded for Cc1ccc(Oc2ccc3nc(COc4cccc(C(=O)O)c4)n(C)c3c2)nc1 with Peroxisome proliferator-activated receptor gamma (Homo sapiens) (enter value) 42%

Please do the same for Cc1ccc(Oc2ccc3nc(COc4cccc(C(=O)O)c4)n(C)c3n2)c(C)c1 as well. 75%

Record: COC(=O)c1cccc(OCc2nc3ccc(Oc4ccccc4)nc3n2C)c1 65%

Same for Cc1ccnc(Oc2ccc3nc(COc4cccc(C(=O)O)c4)n(C)c3c2)c1 41%

Now give it for Cc1ccc(C)c(Oc2ccc3nc(COc4cccc(C(=O)O)c4)n(C)c3c2)n1 too. 117%

---

target: Peroxisome proliferator-activated receptor alpha (Homo sapiens, UniProt Q07869); assay: Agonist activity at recombinant human GAL4-DBD fused PPARalpha LBD expressed in COS7 cells after 24 hrs by luciferase reporter gene assay
Sequence (Q07869 whole entry, the tested form may be a part): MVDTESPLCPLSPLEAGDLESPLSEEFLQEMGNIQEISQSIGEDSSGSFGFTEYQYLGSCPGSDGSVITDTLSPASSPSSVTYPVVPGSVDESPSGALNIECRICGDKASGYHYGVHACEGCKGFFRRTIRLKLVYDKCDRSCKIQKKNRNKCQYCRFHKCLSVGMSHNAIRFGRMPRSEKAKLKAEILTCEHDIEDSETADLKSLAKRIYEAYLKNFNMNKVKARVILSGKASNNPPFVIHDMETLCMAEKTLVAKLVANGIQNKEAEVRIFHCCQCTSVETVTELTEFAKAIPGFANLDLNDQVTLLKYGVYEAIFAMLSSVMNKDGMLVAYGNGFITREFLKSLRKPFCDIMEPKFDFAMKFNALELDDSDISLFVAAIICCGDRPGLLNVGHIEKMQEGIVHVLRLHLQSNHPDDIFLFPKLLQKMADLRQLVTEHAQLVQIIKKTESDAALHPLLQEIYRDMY
pEC50: −log10 of the molar value.
recorded_endpoint: pEC50

A selection of reference data follows.
compound_string=Cc1cc(C)cc(Oc2ccc3nc(COc4cccc(C(=O)O)c4)n(C)c3n2)c1 value_reported="< 5.00"
compound_string=Cc1ccc(Oc2ccc3nc(COc4cccc(C(=O)O)c4)n(C)c3n2)c(C)c1 value_reported="< 5.00"
compound_string=Cn1c(COc2cccc(C(=O)O)c2)nc2ccc(Oc3ccc4c(c3)OCC4)nc21 value_reported="< 5.00"
compound_string=Cn1c(COc2cccc(C(=O)O)c2)nc2ccc(Oc3cc(Cl)ccn3)cc21 value_reported="< 5.00"

Shifting focus to the molecule that follows.
Would you mind telling me what pEC50 value was observed for Cn1c(COc2cccc(C(=O)O)c2)nc2ccc(Oc3ncccc3Cl)cc21 ? < 5.00

---

test: Oral bioavailability in cynomolgus monkey at 3 mg/kg by LC-MS/MS; format: ADME, organism-based, Macaca fascicularis; conditions: in vivo
// reported bioavailability for each item listed
Provide the measurement as a number trailed by its unit.

compound_string=Cn1c(COc2cccc(C(=O)O)c2)nc2ccc(Oc3ncc(Cl)cc3F)cc21 value_reported=31%
compound_string=Cc1cnc(Oc2ccc3nc(COc4cccc(C(=O)O)c4)n(C)c3c2)c(F)c1 value_reported=8.9%

Need bioavailability of Cn1c(COc2cccc(C(=O)O)c2)nc2ccc(Oc3ccc4c(c3)OCC4)nc21 , thanks. 27%

Again, but for Cn1c(COc2cccc(C(=O)O)c2)nc2ccc(Oc3ccc(Cl)c(F)c3)cc21 25%

Follow-up item: Cc1cnc(Oc2ccc3nc(COc4cccc(C(=O)O)c4)n(C)c3c2)c(C)c1 89%

---

system: Hepatocyte; assay: Cytotoxicity against F344/DuCrlCrlj rat primary hepatocytes assessed as reduction in mitochondrial enzyme activity at 10 to 100 uM after 24 hrs by WST8 assay; assay type: cell-based
recorded_endpoint: Activity

compound_string=Cn1c(COc2cccc(C(=O)O)c2)nc2ccc(Oc3ncc(Cl)cc3F)cc21 value_reported=Non-Toxic
compound_string=Cn1c(COc2cccc(C(=O)O)c2)nc2ccc(Oc3ccc4c(c3)OCC4)nc21 value_reported=Non-Toxic
compound_string=Cc1cnc(Oc2ccc3nc(COc4cccc(C(=O)O)c4)n(C)c3c2)c(F)c1 value_reported=Non-Toxic

---

test: Aqueous thermodynamic solubility of the compound in pH 6.8 solution up to 4 hrs by HPLC-UV analysis; type: physicochemical; settings: read-out: Therm_solubility
Outcome: Yes for solubility thermodynamic at 4 h of at least 60 µg/mL; No for anything lower.

compound_string=Cn1c(COc2cccc(C(=O)O)c2)nc2cnc(Oc3ccc4c(c3)OCC4)cc21 label=Yes
compound_string=Cn1c(COc2cccc(C(=O)O)c2)nc2ccc(Oc3ncc(Cl)cc3F)cc21 label=No
compound_string=Cc1cnc(Oc2ccc3nc(COc4cccc(C(=O)O)c4)n(C)c3c2)c(F)c1 label=No
compound_string=Cc1ccc(Oc2ccc3nc(COc4cccc(C(=O)O)c4)n(C)c3c2)nc1C label=Yes
compound_string=Cn1c(COc2cccc(C(=O)O)c2)nc2ccc(Oc3ncc(Cl)cc3Cl)cc21 label=No
compound_string=Cn1c(COc2cccc(C(=O)O)c2)nc2cnc(Oc3ccc4c(c3)CCC4)cc21 label=Yes

Form field: solubility thermodynamic at 4 h at least 60 µg/mL? Entry: Cn1c(COc2cccc(C(=O)O)c2)nc2ccc(Oc3cccc(Cl)n3)cc21 No

# repeat for Cn1c(COc2cccc(C(=O)O)c2)nc2ccc(Oc3ccccn3)cc21 Yes

Try this compound too: Cc1cc(Cl)cnc1Oc1ccc2nc(COc3cccc(C(=O)O)c3)n(C)c2c1 No

Check Cn1c(COc2cccc(C(=O)O)c2)nc2ccc(Oc3ncccc3F)cc21 too. No

And for Cn1c(COc2cccc(C(=O)O)c2)nc2ccc(Oc3ccc(Cl)c(F)c3)nc21 ? No
